Structures can show the parent of a compound that is named as a salt.
UniProt P32305: recorded Ki for assorted compounds
Sequence (P32305 whole entry): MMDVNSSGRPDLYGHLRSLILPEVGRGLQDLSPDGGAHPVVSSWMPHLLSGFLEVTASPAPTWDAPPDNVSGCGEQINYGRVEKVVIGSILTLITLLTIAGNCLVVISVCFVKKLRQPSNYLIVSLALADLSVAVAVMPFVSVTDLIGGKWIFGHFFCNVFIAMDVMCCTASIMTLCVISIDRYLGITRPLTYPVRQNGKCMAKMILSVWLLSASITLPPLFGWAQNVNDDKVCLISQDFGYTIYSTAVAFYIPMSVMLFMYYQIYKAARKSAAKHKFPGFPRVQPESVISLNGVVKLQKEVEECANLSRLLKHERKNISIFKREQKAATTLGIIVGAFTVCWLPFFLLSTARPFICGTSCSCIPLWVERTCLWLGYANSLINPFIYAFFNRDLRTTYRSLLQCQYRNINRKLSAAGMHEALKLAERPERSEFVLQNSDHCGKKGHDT

| compound | Ki |
| --- | --- |
| CCN(CC)c1nc2c(c(-c3ccc(Cl)cc3)n1)CNCC2 [Example 46, hydrochloride] | 100 nM |
| CCN(CC)c1nc2c(c(-c3ccc(C#N)cc3)n1)CCCNC2 | 920 nM |
| C[C@H]1COCCN1c1nc2c(c(-c3ccc(F)cc3)n1)CNCC2 | > 10000 nM |
| Cc1ccc(-c2nc(N3CCOCC3)nc3c2CNCC3)cc1 | 530 nM |
| CCN(CC)c1nc2c(c(-c3ccc(C)cc3)n1)CCNC2 | 100 nM |
